read-out: Transforming Growth Factor (TGFA), TGFA (gene 7039); assay: LTEA_HepaRG_TGFA: Life Technologies and Expression Analysis (LTEA) Assay for Transforming Growth Factor (TGFA) using HepaRG (AID 2283532); settings: mRNA level, 48 h; actives raise or lower the signal
Active and inactive are the calls of the source. The calls were made as follows: active = hit-call score of the fitted dose curve at least 0.9, where 1 is the maximum; inactive = score below 0.9.
Outcomes: t (active), f (inactive)

>>> class("c1ccc2ncccc2c1")
"f"
>>> class("CCCCCCCCCCCCCCCCOS(=O)(=O)O")
"f"
>>> class("CC(C)CC(C)O (stereo not drawn)")
"f"
>>> class("O=c1[nH]cnc2c1ncn2[C@H]1CC[C@@H](CO)O1")
"f"
>>> class("c1ccc(C(O[C@@H]2CCCN(CCc3ccc4c(c3)OCO4)C2)c2ccccc2)cc1")
"t"
>>> class("CCN(CC)C(=S)SSC(=S)N(CC)CC")
"f"
>>> class("CCCc1ccccc1")
"f"
>>> class("OC(CCl)CCl")
"f"
>>> class("COc1cc(C(C)C)c2c(c1)S(=O)(=O)N(COc1cc(=O)n3cccc(OCCN4CCCCC4)c3n1)C2=O")
"f"
>>> class("NNC(=O)c1ccncc1")
"f"
>>> class("COCc1nnc(-c2ccc[n+]([O-])c2)n1-c1c(Cl)c(Cl)cc2[nH]c(=O)c(=O)[nH]c12")
"f"
>>> class("OCc1ccccc1")
"f"
>>> class("Cc1nc(-c2ccccn2)ncc1C(=O)Nn1cc(C)c2cc(F)ccc21")
"f"

---

read-out: Broad substrate specificity ATP-binding cassette transporter ABCG2 (Homo sapiens) (UniProt Q9UNQ0); assay: LTEA_HepaRG_ABCG2: Life Technologies and Expression Analysis (LTEA) Assay for ABC Transporter (ABCG2) using HepaRG (AID 2283465); conditions: mRNA level, 48 h; actives raise or lower the signal
Sequence (Q9UNQ0 whole entry, looked up): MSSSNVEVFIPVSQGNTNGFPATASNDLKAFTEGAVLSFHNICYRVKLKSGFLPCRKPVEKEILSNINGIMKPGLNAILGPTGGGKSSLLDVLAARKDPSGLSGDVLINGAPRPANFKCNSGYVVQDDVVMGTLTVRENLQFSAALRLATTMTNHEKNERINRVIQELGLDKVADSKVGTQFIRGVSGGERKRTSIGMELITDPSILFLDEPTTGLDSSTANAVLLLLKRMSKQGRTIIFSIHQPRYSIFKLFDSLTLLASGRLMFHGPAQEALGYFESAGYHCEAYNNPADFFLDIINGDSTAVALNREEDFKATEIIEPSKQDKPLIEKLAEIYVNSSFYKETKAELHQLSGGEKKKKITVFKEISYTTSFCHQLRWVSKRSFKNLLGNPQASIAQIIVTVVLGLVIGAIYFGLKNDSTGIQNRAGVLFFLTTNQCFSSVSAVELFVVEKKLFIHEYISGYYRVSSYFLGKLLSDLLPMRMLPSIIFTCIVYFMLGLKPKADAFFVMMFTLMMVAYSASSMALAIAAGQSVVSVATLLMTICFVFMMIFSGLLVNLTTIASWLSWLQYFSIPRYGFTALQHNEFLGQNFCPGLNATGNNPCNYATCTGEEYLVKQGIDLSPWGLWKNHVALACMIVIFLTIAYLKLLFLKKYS
Active and inactive are the calls of the source. Rule for the calls: active = hit-call score of the fitted dose curve at least 0.9, where 1 is the maximum; inactive = score below 0.9.
Possible outcomes: label 1 (active), label 0 (inactive)

>>> class("COc1cc2c(c(OC)c1OC)-c1ccc(OC)c(=O)cc1[C@@H](NC(C)=O)CC2")
"label 0"
>>> class("OC(Cn1cncn1)(Cn1cncn1)c1ccc(F)cc1F")
"label 0"
>>> class("CCCCCCCCN(C)C")
"label 0"
>>> class("C=CN1CCCC1=O")
"label 0"
>>> class("COc1cc(C(C)C)c2c(c1)S(=O)(=O)N(COc1cc(=O)n3cccc(OCCN4CCCCC4)c3n1)C2=O")
"label 1"
>>> class("CCCCCCCCCCCCCCO")
"label 0"
>>> class("OCCOCCOCCO")
"label 0"
>>> class("CC(C)C(=O)Nc1ccc([N+](=O)[O-])c(C(F)(F)F)c1")
"label 0"
>>> class("O=C(O)c1cccc(C[C@@H]2COc3ccc(OCc4nc5cc(F)ccc5s4)cc3[C@@H]2O)c1")
"label 0"
>>> class("CC(C)CC(C)O (configuration not stated)")
"label 0"
>>> class("c1ccc2c(c1)-c1cccc3c1c-2cc1ccccc13")
"label 0"
>>> class("Cc1ccc(S(=O)(=O)NC(=O)NN2CCCCCC2)cc1")
"label 0"
>>> class("CCCc1ccccc1")
"label 0"
>>> class("Cn1c(=O)c2[nH]cnc2n(C)c1=O")
"label 0"
>>> class("OCCNCCO")
"label 0"
>>> class("CCCC(CCC)C(=O)O")
"label 0"
>>> class("Cc1ncc([C@@H](CCCCCCc2ccc3c(n2)NCCC3)CC(=O)O)cn1")
"label 0"
>>> class("CC(C)CCCCCCOC(=O)C1CCCCC1C(=O)OCCCCCCC(C)C (configuration not stated)")
"label 0"
>>> class("COS(C)(=O)=O")
"label 0"
>>> class("CCN(CC)C(=S)SSC(=S)N(CC)CC")
"label 0"
>>> class("Cn1cc[nH]c1=S")
"label 0"
>>> class("c1ccc2ncccc2c1")
"label 0"
>>> class("OC[C@H]1O[C@@H]2O[C@H]3[C@H](O)[C@@H](O)[C@@H](O[C@H]4[C@H](O)[C@@H](O)[C@@H](O[C@H]5[C@H](O)[C@@H](O)[C@@H](O[C@H]6[C@H](O)[C@@H](O)[C@@H](O[C@H]7[C@H](O)[C@@H](O)[C@@H](O[C@H]1[C@H](O)[C@H]2O)O[C@@H]7CO)O[C@@H]6CO)O[C@@H]5CO)O[C@@H]4CO)O[C@@H]3CO")
"label 0"
>>> class("OCc1ccccc1")
"label 0"
>>> class("C=CCc1cc(S(=O)(=O)c2ccc(O)c(CC=C)c2)ccc1O")
"label 0"
>>> class("O=S(=O)(O)c1ccc(N=Nc2c(O)ccc3cc(S(=O)(=O)O)ccc23)cc1")
"label 0"
>>> class("Cc1nc(-c2ccccn2)ncc1C(=O)Nn1cc(C)c2cc(F)ccc21")
"label 0"
>>> class("CCCCCCCCCCCCCCCCOS(=O)(=O)O")
"label 0"
>>> class("CCCCCOC(C)=O")
"label 0"
>>> class("OC[C@H]1O[C@@](CO)(O[C@H]2O[C@H](CO)[C@@H](O)[C@H](O)[C@H]2O)[C@@H](O)[C@@H]1O")
"label 0"
>>> class("CCCCC(CC)C(=O)OCCOCCOCCOC(=O)C(CC)CCCC (configuration not stated)")
"label 0"
>>> class("CCc1ccc(O)c(C(C)(C)C)c1")
"label 0"
>>> class("CCCCCCCC/C=C\\CCCCCCCC(=O)OC[C@@H](O)[C@H]1OC[C@H](O)[C@H]1O")
"label 0"
>>> class("CCCCCCOC(=O)CC(CC(=O)OCCCCCC)(OC(=O)CCC)C(=O)OCCCCCC")
"label 0"
>>> class("NC(=O)N(O)[C@@H]1COc2cc(OCc3ccccc3)ccc21")
"label 0"
>>> class("O=C(O)c1cccc(C(=O)O)c1")
"label 0"
>>> class("OC(CCl)CCl")
"label 0"
>>> class("O=C1CN(N=Cc2ccc([N+](=O)[O-])o2)C(=O)N1")
"label 1"
>>> class("Nc1ccn([C@@H]2O[C@H](CO)[C@@H](O)[C@@H]2O)c(=O)n1")
"label 0"
>>> class("CCCCOC(=O)c1ccccc1")
"label 0"
>>> class("CCOC(N)=O")
"label 0"
>>> class("CC[C@H](C)C(=O)O[C@H]1C[C@H](O)C=C2C=C[C@H](C)[C@H](CC[C@@H](O)C[C@@H](O)CC(=O)O)[C@H]21")
"label 0"
>>> class("CC(=O)c1ccccc1")
"label 0"
>>> class("OCC(CO)(CO)CO")
"label 0"
>>> class("O=C(NO)C1(NS(=O)(=O)c2ccc(Oc3ccc(F)cc3)cc2)CCOCC1")
"label 0"
>>> class("COCc1nnc(-c2ccc[n+]([O-])c2)n1-c1c(Cl)c(Cl)cc2[nH]c(=O)c(=O)[nH]c12")
"label 0"
>>> class("CNC(C)=O")
"label 0"

---

assay: CCTE_Shafer_MEA_dev_network_spike_duration_std: CCTE's Neural Network Formation Assay for Standard Deviation of Network Spike Duration, Shafer Lab (AID 2284052);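 also: area under curve of spike duration SD across recording days 5 to 12; hits are decreases in network spike duration SD versus DMSO vehicle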
The source made the active and inactive calls. The calls were made as follows: active = hit-call score of the fitted dose curve at least 0.9, where 1 is the maximum; inactive = score below 0.9.
readoutType: outcome

>>> endpointvalue("C[C@]12C=CC(=O)C=C1CC[C@H]1[C@@H]3C[C@@H](O)[C@](O)(C(=O)CO)[C@@]3(C)C[C@H](O)[C@@]12F")
"inactive"
>>> endpointvalue("CCCC(CCC)C(=O)O")
"inactive"
>>> endpointvalue("FC(F)(F)C(F)(F)C(F)(F)C(F)(F)C(F)(F)C(F)(F)I")
"inactive"

---

read-out: E-selectin (Homo sapiens) (UniProt P16581); experiment: BSK_3C_Eselectin: BioMAP Diversity Plus: 3C Assay for Eselectin Biomarker Activity (AID 2283015); conditions: primary human endothelial cells (HUVEC); actives raise or lower the signal
Sequence (P16581 whole entry, looked up): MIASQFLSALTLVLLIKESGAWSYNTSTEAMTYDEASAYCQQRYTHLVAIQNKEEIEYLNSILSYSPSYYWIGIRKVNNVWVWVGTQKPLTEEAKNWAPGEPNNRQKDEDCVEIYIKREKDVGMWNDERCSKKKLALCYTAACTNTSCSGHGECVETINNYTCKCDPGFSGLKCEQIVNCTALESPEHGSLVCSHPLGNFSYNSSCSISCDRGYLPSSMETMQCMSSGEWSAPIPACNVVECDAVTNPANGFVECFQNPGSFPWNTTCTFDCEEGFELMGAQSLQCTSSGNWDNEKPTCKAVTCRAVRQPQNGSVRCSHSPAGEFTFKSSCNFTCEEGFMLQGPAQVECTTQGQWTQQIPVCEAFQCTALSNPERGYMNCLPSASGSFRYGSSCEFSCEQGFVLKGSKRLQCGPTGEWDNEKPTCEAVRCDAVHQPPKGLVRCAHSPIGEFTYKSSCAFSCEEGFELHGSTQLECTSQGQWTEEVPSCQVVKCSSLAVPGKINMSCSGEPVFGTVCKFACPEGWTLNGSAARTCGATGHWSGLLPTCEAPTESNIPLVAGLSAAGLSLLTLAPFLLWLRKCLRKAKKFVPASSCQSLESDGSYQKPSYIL
Active and inactive are the calls of the source. The calls were made as follows: active = hit-call score of the fitted dose curve at least 0.9, where 1 is the maximum; inactive = score below 0.9.
Possible outcomes: T for active, F for inactive

>>> class("O=C(O)[C@H](O)[C@@H](O)C(=O)O")
"F"
>>> class("CCCOc1ccc(S(=O)(=O)N2CCN(CC)CC2)cc1-c1nc2c(CC)n(Cc3ccccn3)nc2c(=O)[nH]1")
"F"
>>> class("OC[C@H]1O[C@@](CO)(O[C@H]2O[C@H](CO)[C@@H](O)[C@H](O)[C@H]2O)[C@@H](O)[C@@H]1O")
"F"
>>> class("CCCCCCOC(=O)CC(CC(=O)OCCCCCC)(OC(=O)CCC)C(=O)OCCCCCC")
"F"
>>> class("CCCc1ccccc1")
"F"
>>> class("CCCCCCCC1CCC(=O)O1 (configuration not stated)")
"F"
>>> class("CCCCC(CC)C(=O)OCCOCCOCCOC(=O)C(CC)CCCC (configuration not stated)")
"F"
>>> class("OCc1ccccc1")
"F"
>>> class("CC(=O)c1ccccc1")
"F"
>>> class("OCCC(F)(F)C(F)(F)C(F)(F)C(F)(F)F")
"F"
>>> class("CNC(C)=O")
"F"
>>> class("CC(C)C(=O)Nc1ccc([N+](=O)[O-])c(C(F)(F)F)c1")
"F"
>>> class("O=C1CN(N=Cc2ccc([N+](=O)[O-])o2)C(=O)N1")
"T"
>>> class("COCc1nnc(-c2ccc[n+]([O-])c2)n1-c1c(Cl)c(Cl)cc2[nH]c(=O)c(=O)[nH]c12")
"F"
>>> class("CC[C@H](C)C(=O)O[C@H]1C[C@H](O)C=C2C=C[C@H](C)[C@H](CC[C@@H](O)C[C@@H](O)CC(=O)O)[C@H]21")
"F"
>>> class("Cc1cccc(O)c1C")
"F"
>>> class("NC(N)=O")
"F"
>>> class("CCCCCCCC/C=C\\CCCCCCCC(=O)OC[C@@H](O)[C@H]1OC[C@H](O)[C@H]1O")
"F"
>>> class("FC(F)C(F)(F)COCC1CO1 (configuration not stated)")
"F"
>>> class("O=S(=O)(O)c1ccc(N=Nc2c(O)ccc3cc(S(=O)(=O)O)ccc23)cc1")
"F"
>>> class("O=C(O)c1cccc(C(=O)O)c1")
"F"
>>> class("CCc1cccc(CC)c1N")
"F"
>>> class("COc1cc(C(C)C)c2c(c1)S(=O)(=O)N(COc1cc(=O)n3cccc(OCCN4CCCCC4)c3n1)C2=O")
"T"
>>> class("COc1cc2c(c(OC)c1OC)-c1ccc(OC)c(=O)cc1[C@@H](NC(C)=O)CC2")
"F"
>>> class("FC(F)=C(F)C(F)(F)C(F)(F)C(F)(F)C(F)(F)C(F)(F)C(F)(F)F")
"F"
>>> class("C[Si](C)(C)C(F)(F)C(F)(F)C(F)(F)F")
"F"
>>> class("CC(C)c1nnc2ccc(-c3ocnc3-c3cc(F)ccc3F)cn12")
"F"
>>> class("c1ccc2cc3ccccc3cc2c1")
"F"
>>> class("OC(CCl)CCl")
"F"
>>> class("NC(=O)N1c2ccccc2C=Cc2ccccc21")
"F"
>>> class("C=CN1CCCC1=O")
"F"
>>> class("CCN(CC)C(=S)SSC(=S)N(CC)CC")
"T"
>>> class("Cc1nccn1-c1ccc(Sc2cccc(C3(C(N)=O)CCOCC3)c2)cc1")
"F"
>>> class("O=C(NO)C1(NS(=O)(=O)c2ccc(Oc3ccc(F)cc3)cc2)CCOCC1")
"F"
>>> class("CC(C)CC(C)O (configuration not stated)")
"F"
>>> class("Nc1ccn([C@@H]2O[C@H](CO)[C@@H](O)[C@@H]2O)c(=O)n1")
"F"
>>> class("O=C(O)c1cccc(C[C@@H]2COc3ccc(OCc4nc5cc(F)ccc5s4)cc3[C@@H]2O)c1")
"F"
>>> class("Cc1ccc(S(=O)(=O)NC(=O)NN2CCCCCC2)cc1")
"F"
>>> class("CCCC(CCC)C(=O)O")
"F"
>>> class("OCCNCCO")
"F"
>>> class("NCC(F)(F)C(F)(F)C(F)(F)C(F)(F)F")
"F"
>>> class("O=c1[nH]cnc2c1ncn2[C@H]1CC[C@@H](CO)O1")
"F"

Sourced from PubChem BioAssay (EPA / NIEHS)
